Record form. Attribute: pIC50. Fill in for each entry.
Biological target: hDGAT1 (Homo sapiens, UniProt O75907)
Construct: endogenous in cells
Sequence (O75907 whole entry): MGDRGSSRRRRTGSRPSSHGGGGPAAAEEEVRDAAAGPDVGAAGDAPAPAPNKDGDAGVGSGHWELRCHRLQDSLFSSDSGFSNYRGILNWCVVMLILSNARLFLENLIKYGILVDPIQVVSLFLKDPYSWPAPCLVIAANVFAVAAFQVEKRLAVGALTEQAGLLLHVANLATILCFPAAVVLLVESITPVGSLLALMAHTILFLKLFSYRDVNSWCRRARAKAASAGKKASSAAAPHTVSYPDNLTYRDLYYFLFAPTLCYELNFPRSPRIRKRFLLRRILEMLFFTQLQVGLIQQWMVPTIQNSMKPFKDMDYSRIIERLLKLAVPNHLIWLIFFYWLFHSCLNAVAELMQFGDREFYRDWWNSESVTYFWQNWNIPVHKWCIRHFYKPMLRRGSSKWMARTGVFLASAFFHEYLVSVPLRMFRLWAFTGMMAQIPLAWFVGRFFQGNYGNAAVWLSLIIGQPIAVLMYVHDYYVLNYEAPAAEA
Assay: Cell based hDGAT1 inhibitory activity in HEK293H cells (13C-oleic acid to triolein, LC-MS)
Kindly note that pIC50 refers to -log10 of the concentration in mol/L and answer with the value alone.

Exercise: Entry O=C(Nc1ccc(N2CCC3(CC2)CC3C(=O)O)nc1)c1nnc(Nc2ccccc2)o1 (stereo not drawn) has what pIC50?
Solution: 7.27

Exercise: How about this molecule: O=C(Nc1ccc(C2CCC3(CC2)CC3C(=O)O)cc1)c1nnc(Nc2ccc(F)c(F)c2)o1 (stereo not drawn)
Solution: 7.68

Exercise: Try O=C(Nc1ccc(N2CCC3(CC2)CC3C(=O)O)nc1)c1nnc(Nc2ccc(C(F)(F)F)cc2)o1 (stereo not drawn) next.
Solution: 7.21

Exercise: Repeat with O=C(Nc1ccc(N2CCC3(CC2)CC3C(=O)O)cc1)c1nnc(Nc2ccc(F)cc2)o1 (stereo not drawn)
Solution: 7.46

Exercise: Can you check O=C(Nc1ccc(N2C3CCC2CC2(CC(C(=O)O)C2)C3)nc1)c1nnc(Nc2ccc(F)c(F)c2)o1 (stereo not drawn) next?
Solution: 7.43

Exercise: Proceed to O=C(O)CC1CCC2(CC1)CCC(c1ccc(NC(=O)c3nnc(Nc4ccccc4)o3)cn1)CC2 (stereo not drawn)
Solution: 7.82

Exercise: Thanks! And O=C(Nc1ccc(C2CCC3(CC2)CC3C(=O)O)cc1)c1nnc(Nc2ccc(OCC(F)(F)F)nc2)o1 (stereo not drawn) ?
Solution: 8.00

Exercise: Do the same for Nc1ncnc2c1C(=O)N(c1ccc(C3CCC4(CCC(CC(=O)O)CC4)CC3)cc1)CCO2 (stereo not drawn) please
Solution: 7.82

Exercise: For "O=C(Nc1ccc(N2CCC3(CC2)CC(C(=O)N2CCC(O)CC2)C3)nc1)c1nnc(Nc2ccc(F)c(F)c2)o1" then?
Solution: 7.48

---

Molecular target: hDGAT1 (Homo sapiens)
Construct: endogenous in cells
Experiment: Cell based hDGAT1 inhibitory activity in HEK293H cells (13C-oleic acid to triolein, LC-MS)
Lab note - cut at 20 nM for IC50: true if strictly below, false if not.

Exercise: Does the reported IC50 of the following compound sit strictly below 20 nM? O=C(Nc1ccc(C2CCC3(CC2)CC(C(=O)O)C3)cc1)c1nnc(Nc2ccc(F)c(F)c2)o1 (centres unmarked)
Solution: true

Exercise: # iterate: COC(=O)C1CC2(CCC(c3ccc(NC(=O)c4nnc(Nc5ccc(F)c(F)c5)o4)cc3)CC2)C1 (centres unmarked)
Solution: false

Exercise: What do you have for "CCOC(=O)C1CC2(CCN(c3ccc(NC(=O)c4nnc(Nc5ccc(F)c(F)c5)o4)cn3)CC2)C1" ?
Solution: false

Exercise: Same read-out for O=C(Nc1ccc(N2CCC3(CC2)CC3C(=O)O)cc1)c1nnc(Nc2ccccc2)o1 (centres unmarked) ?
Solution: false

Exercise: Do the same for O=C(Nc1ccc(C2CCC3(CC2)CC3C(=O)O)cc1)c1nnc(Nc2cccc(Cl)c2)o1 (centres unmarked) please
Solution: true

Exercise: Next compound: "NC(=O)CC1CCC2(CC1)CCN(c1ccc(NC(=O)c3nnc(Nc4ccc(F)c(F)c4)o3)cn1)CC2"
Solution: true

Exercise: Next record, please: O=C(Nc1ccc(N2CCC3(CC2)CC3C(=O)O)cc1)c1nnc(Nc2ccc(F)c(F)c2)o1 (centres unmarked)
Solution: false
